biological target: Virion infectivity factor (Human immunodeficiency virus type 1 group M subtype B (isolate BH10)) + Virion infectivity factor (Human immunodeficiency virus type 1 group M subtype B (isolate BRU/LAI)) + Virion infectivity factor (Human immunodeficiency virus type 1 group M subtype B (isolate PCV12)) + Virion infectivity factor (Human immunodeficiency virus type 1 group M subtype B (isolate HXB2)) + DNA dC->dU-editing enzyme APOBEC-3G (Homo sapiens) (UniProt P69720+P69721+P69722+P69723+Q9HC16); assay: inhibitors of Vif binding to APOBEC3G peptide, primary screen, biochemical, TR-FRET, GST-Vif 1-94, biotin-A3G peptide, dose response retest (AID 1117319); conditions: stronger effect = higher value;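 note: Vif residues 1-94 fused to GST binding biotinylated APOBEC3G peptide 110-148; 0% = full assay without inhibitor and 100% = GST in place of GST-Vif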
The campaign covered roughly 260,000 compounds. About 1,500 (0.58%) were called active. Not shown: some 5% with an inconclusive outcome. These entries were drawn from the full list. Entries with a potency or affinity are not part of this list.
Listed next: entries and their corresponding inhibition.
recorded-metric: inhibition (%)

1. Cc1ccc(/C(O)=C2/C(=O)C(=O)N(c3ccccn3)C2c2cccc([N+](=O)[O-])c2)cc1 (stereo not given)    1.22
2. CNC(=O)CN(C1CCCCC1)S(=O)(=O)c1ccc(F)cc1    -2.39
3. O=C(NN1CCOCC1)c1cc(-c2ccc(Cl)c(Cl)c2)nc2ccccc12    -15.2
4. COCCSc1nnc(NC(=O)COC)s1    -0.26
5. CN(C)C(=O)CSc1nnc([C@H](Cc2ccccc2)NC(=O)OC(C)(C)C)o1    -2.79

The reported numbers originate from PubChem BioAssay AID1117319.
